src = paper PMC7824826

tested on: in vitro blood–brain barrier model (primary rat brain endothelial cells and pericytes on Transwell filters, glial-conditioned media); assay: Permeability assay through the in vitro BBB model; type: in vitro ADME; details: 10 µM in top compartment, 60 min, N = 3, relative to KYNA
VALUE_KIND: Papp % (permeability coefficient compared to KYNA) (%)
Quick reminder: number only, in %, skip the unit.

Worked examples, 3 compounds total:
COMPOUND: CN(C)CCNC(=O)c1nc2ccccc2c(O)c1CN1CCOCC1
NUMERIC_VALUE: 222

COMPOUND: O=C(O)c1cc(O)c2cccc(O)c2n1
NUMERIC_VALUE: 89

COMPOUND: O=C(O)c1cc(=O)c2ccccc2[nH]1
NUMERIC_VALUE: 100

Next up:
Suppose we examine the compound O=C(O)c1[nH]c2c(O)cccc2c(=O)c1CN1CCOCC1 [39B] ; what Papp % (permeability coefficient compared to KYNA) value has been reported?
74
